For each entry below, report its IC50 at 72 h value.
- experimental protocol: MTT cytotoxicity, HFB
- Format: cell-based
- condition set: human, human primary fibroblasts (HFB)
Report the figure along with its unit, number first.

Prompt: Recorded IC50 at 72 h of Cc1cc(Nc2cccc(CC3CCN(C(=O)c4cccc(Cl)c4F)CC3)n2)[nH]n1 [Compound 15] , please.
Completion: 3 µM

Prompt: Recorded IC50 at 72 h of Cc1cc(Nc2ccnc(CC3CCN(C(=O)c4cccc(Cl)c4F)CC3)n2)[nH]n1 [Compound 16] , please.
Completion: 3.3 µM

Prompt: Recorded IC50 at 72 h of Cc1cc(Nc2nccs2)nc(CC2CCN(C(=O)c3cccc(Cl)c3F)CC2)n1 [Compound 12] , please.
Completion: 3.8 µM

Prompt: Recorded IC50 at 72 h of Cc1cc(Nc2ncc(Cl)s2)nc(CC2CCN(C(=O)c3cccc(Cl)c3F)CC2)n1 [Compound 13] , please.
Completion: 2.8 µM

Prompt: Recorded IC50 at 72 h of Cc1cc(Nc2ncc(C)s2)nc(CC2CCN(C(=O)c3cccc(Cl)c3F)CC2)n1 [Compound 11] , please.
Completion: 3.6 µM

###

- Test system: H23 (lung adenocarcinoma)
- experimental protocol: MTT cytotoxicity, H23
- Format: cell-based
- condition set: 72 h
For each entry below, report its IC50 value.
Numbers only here, please. The scale is µM.

Prompt: Record Cc1cc(Nc2ncc(C)s2)nc(CC2CCN(C(=O)c3cccc(Cl)c3F)CC2)n1 [Compound 11] : what is its IC50 with H23 (lung adenocarcinoma)?
Completion: 3.9

Prompt: Record Cc1cc(Nc2ncc(Cl)s2)nc(CC2CCN(C(=O)c3cccc(Cl)c3F)CC2)n1 [Compound 13] : what is its IC50 with H23 (lung adenocarcinoma)?
Completion: 1.2

Prompt: Record Cc1cc(Nc2nccs2)nc(CC2CCN(C(=O)c3cccc(Cl)c3F)CC2)n1 [Compound 12] : what is its IC50 with H23 (lung adenocarcinoma)?
Completion: 6.8

###

For each entry below, report its IC50 value.
Numbers only here, please. The scale is µM.

Prompt: Record Cc1cc(Nc2ccn[nH]2)nc(CC2CCN(C(=O)c3cccc(Cl)c3F)CC2)n1 [Compound 14] : what is its IC50 with UniProt:P08684?
Completion: 15.1

Prompt: Record Cc1cc(Nc2ccnc(CC3CCN(C(=O)c4cccc(Cl)c4F)CC3)n2)[nH]n1 [Compound 16] : what is its IC50 with UniProt:P08684?
Completion: 0.596

###

- assayed system: c-Kit (Homo sapiens, UniProt P10721)
- Sequence (P10721 26-976): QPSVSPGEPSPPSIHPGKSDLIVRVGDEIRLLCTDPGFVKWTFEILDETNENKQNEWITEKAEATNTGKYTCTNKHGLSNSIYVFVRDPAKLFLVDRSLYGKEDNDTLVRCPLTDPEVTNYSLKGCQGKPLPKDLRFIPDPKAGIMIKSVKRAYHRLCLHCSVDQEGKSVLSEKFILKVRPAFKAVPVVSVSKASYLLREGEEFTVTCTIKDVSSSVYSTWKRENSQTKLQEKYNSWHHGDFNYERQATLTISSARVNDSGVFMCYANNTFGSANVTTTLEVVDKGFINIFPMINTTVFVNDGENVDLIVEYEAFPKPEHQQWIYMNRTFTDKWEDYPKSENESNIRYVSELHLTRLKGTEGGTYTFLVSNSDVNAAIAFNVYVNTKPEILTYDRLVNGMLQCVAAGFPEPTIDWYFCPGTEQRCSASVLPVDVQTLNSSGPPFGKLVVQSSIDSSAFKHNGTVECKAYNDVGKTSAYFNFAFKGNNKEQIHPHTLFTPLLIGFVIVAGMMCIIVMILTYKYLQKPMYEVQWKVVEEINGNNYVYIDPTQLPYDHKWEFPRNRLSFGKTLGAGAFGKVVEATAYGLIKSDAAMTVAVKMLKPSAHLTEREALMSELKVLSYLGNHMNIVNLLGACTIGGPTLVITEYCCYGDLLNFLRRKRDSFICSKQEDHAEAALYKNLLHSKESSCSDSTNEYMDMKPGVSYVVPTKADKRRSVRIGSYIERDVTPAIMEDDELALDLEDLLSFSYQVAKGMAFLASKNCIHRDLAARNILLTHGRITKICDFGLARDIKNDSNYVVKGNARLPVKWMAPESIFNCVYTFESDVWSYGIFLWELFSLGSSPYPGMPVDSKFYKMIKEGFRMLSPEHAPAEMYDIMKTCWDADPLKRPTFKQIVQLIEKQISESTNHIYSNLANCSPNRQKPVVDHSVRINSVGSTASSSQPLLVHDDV
measured quantity: IC50 (µM)
Numbers only here, please. The scale is µM.

Prompt: Record Cc1cc(Nc2ccn[nH]2)nc(CC2CCN(C(=O)c3cccc(Cl)c3F)CC2)n1 [Compound 14] : what is its IC50 with c-Kit (Homo sapiens, UniProt P10721)?
Completion: 21

###

- Test system: PC3 (prostate adenocarcinoma)
- experimental protocol: MTT cytotoxicity, PC3
- Format: cell-based
- condition set: 72 h
measured quantity: pIC50
Please note pIC50 is a logarithmic value: minus log10 of concentration in mol/L. Answer with that number alone.

Prompt: Record Cc1cc(Nc2ncc(Cl)s2)nc(CC2CCN(C(=O)c3cccc(Cl)c3F)CC2)n1 [Compound 13] : what is its pIC50 with PC3 (prostate adenocarcinoma)?
Completion: 5.41

Prompt: Record Cc1cc(Nc2nccs2)nc(CC2CCN(C(=O)c3cccc(Cl)c3F)CC2)n1 [Compound 12] : what is its pIC50 with PC3 (prostate adenocarcinoma)?
Completion: 5.22

Prompt: Record Cc1cc(Nc2cccc(CC3CCN(C(=O)c4cccc(Cl)c4F)CC3)n2)[nH]n1 [Compound 15] : what is its pIC50 with PC3 (prostate adenocarcinoma)?
Completion: 5.01

Prompt: Record Cc1cc(Nc2ncc(C)s2)nc(CC2CCN(C(=O)c3cccc(Cl)c3F)CC2)n1 [Compound 11] : what is its pIC50 with PC3 (prostate adenocarcinoma)?
Completion: 5.49

Prompt: Record Cc1cc(Nc2ccnc(CC3CCN(C(=O)c4cccc(Cl)c4F)CC3)n2)[nH]n1 [Compound 16] : what is its pIC50 with PC3 (prostate adenocarcinoma)?
Completion: 5.08

###

For each entry below, report its pIC50 value.
Please note pIC50 is a logarithmic value: minus log10 of concentration in mol/L. Answer with that number alone.

Prompt: Record Cc1cc(Nc2ccnc(CC3CCN(C(=O)c4cccc(Cl)c4F)CC3)n2)[nH]n1 : what is its pIC50 with CYP 2C9 (Homo sapiens)?
Completion: 6.49

Prompt: Record Cc1cc(Nc2ccn[nH]2)nc(CC2CCN(C(=O)c3cccc(Cl)c3F)CC2)n1 : what is its pIC50 with CYP 2C9 (Homo sapiens)?
Completion: 5.41

###

For each entry below, report its pIC50 value.
- assayed system: Aurora B (Homo sapiens, UniProt Q96GD4)
- Sequence (Q96GD4 whole entry): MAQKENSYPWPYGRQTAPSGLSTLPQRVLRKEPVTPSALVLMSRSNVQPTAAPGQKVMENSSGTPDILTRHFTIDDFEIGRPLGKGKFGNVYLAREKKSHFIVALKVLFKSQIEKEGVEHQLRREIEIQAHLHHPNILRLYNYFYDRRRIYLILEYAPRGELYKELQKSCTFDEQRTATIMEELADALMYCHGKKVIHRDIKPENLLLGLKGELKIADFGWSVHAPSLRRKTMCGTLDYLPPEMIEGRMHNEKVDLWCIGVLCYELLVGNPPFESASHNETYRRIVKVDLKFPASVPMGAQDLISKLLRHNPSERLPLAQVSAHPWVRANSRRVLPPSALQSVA
- experimental protocol: Aurora B kinase inhibition
- Assay type: biochemical
- condition set: Table 1
Please note pIC50 is a logarithmic value: minus log10 of concentration in mol/L. Answer with that number alone.

Prompt: Recorded pIC50 of CCCc1cnc(Nc2cccc(C3CCN(C(=O)CN)CC3)n2)s1 , please.
Completion: 5.76

Prompt: Recorded pIC50 of CCCc1cnc(Nc2cccc(C3CCN(C(=O)CNC)CC3)n2)s1 , please.
Completion: 6.04

Prompt: Recorded pIC50 of CCCc1cnc(Nc2cc(CC)nc(C3CCN(C(=O)C(C)(C)N)CC3)n2)s1 , please.
Completion: 5.69

Prompt: Recorded pIC50 of O=C(C1CNCCO1)N1CCC(c2cccc(Nc3ncc(-c4ccccc4)s3)n2)CC1 (stereo not shown) , please.
Completion: 6.08

###

measured quantity: melting point

Prompt: Recorded melting point of Cc1cc(Nc2ccn[nH]2)nc(CC2CCN(C(=O)c3cccc(Cl)c3F)CC2)n1 [Compound 14] , please.
Completion: 125 to 128 °C

Prompt: Recorded melting point of Cc1cc(Nc2nccs2)nc(CC2CCN(C(=O)c3cccc(Cl)c3F)CC2)n1 [Compound 12] , please.
Completion: 207 to 209 °C

Prompt: Recorded melting point of Cc1cc(Nc2ncc(C)s2)nc(CC2CCN(C(=O)c3cccc(Cl)c3F)CC2)n1 [Compound 11] , please.
Completion: 211 to 213 °C

Prompt: Recorded melting point of Cc1cc(Nc2ncc(Cl)s2)nc(CC2CCN(C(=O)c3cccc(Cl)c3F)CC2)n1 [Compound 13] , please.
Completion: 221 to 223 °C

Prompt: Recorded melting point of Cc1cc(Nc2cccc(CC3CCN(C(=O)c4cccc(Cl)c4F)CC3)n2)[nH]n1 [Compound 15] , please.
Completion: 120 to 122 °C

###

- experimental protocol: MTT cytotoxicity, MEF WT
- Format: cell-based
- condition set: mouse
measured quantity: IC50 at 48 h (µM)
Numbers only here, please. The scale is µM.

Prompt: Recorded IC50 at 48 h of Cc1cc(Nc2cccc(CC3CCN(C(=O)c4cccc(Cl)c4F)CC3)n2)[nH]n1 [Compound 15] , please.
Completion: 0.9

Prompt: Recorded IC50 at 48 h of Cc1cc(Nc2ccnc(CC3CCN(C(=O)c4cccc(Cl)c4F)CC3)n2)[nH]n1 [Compound 16] , please.
Completion: 0.9

Prompt: Recorded IC50 at 48 h of Cc1cc(Nc2ncc(C)s2)nc(CC2CCN(C(=O)c3cccc(Cl)c3F)CC2)n1 [Compound 11] , please.
Completion: 1

Prompt: Recorded IC50 at 48 h of Cc1cc(Nc2ncc(Cl)s2)nc(CC2CCN(C(=O)c3cccc(Cl)c3F)CC2)n1 [Compound 13] , please.
Completion: 2.5

Prompt: Recorded IC50 at 48 h of Cc1cc(Nc2nccs2)nc(CC2CCN(C(=O)c3cccc(Cl)c3F)CC2)n1 [Compound 12] , please.
Completion: 5.8
